- Test system: MGC-803
- measurement_description: Growth inhibition of human MGC803 cells at 10 uM after 72 hrs by MTT assay
- Type: functional
- applied_conditions: MGC-803, 72 h, read-out: GI

molecule	inhibition of growth at 10 µM, %
C[C@H]1[C@H](C)CC[C@]2(C(=O)OCCN3CCN(C(=O)c4c(Cl)cccc4Cl)CC3)CC[C@]3(C)C(=CC[C@@H]4[C@@]5(C)CC[C@H](O)C(C)(C)[C@@H]5CC[C@]43C)[C@H]12	95.6
C[C@H]1[C@H](C)CC[C@]2(C(=O)OCCN3CCN(C(=O)c4ccnc(Cl)c4)CC3)CC[C@]3(C)C(=CC[C@@H]4[C@@]5(C)CC[C@H](O)C(C)(C)[C@@H]5CC[C@]43C)[C@H]12	24.1
CC[C@@]1(O)C(=O)OCc2c1cc1n(c2=O)Cc2cc3cc(O)ccc3nc2-1 [HYDROXYCAMPTOTHECIN]	29.1
C[C@H]1[C@H](C)CC[C@]2(C(=O)OCCN3CCN(C(=O)Cc4ccc(Cl)cc4)CC3)CC[C@]3(C)C(=CC[C@@H]4[C@@]5(C)CC[C@H](O)C(C)(C)[C@@H]5CC[C@]43C)[C@H]12	68.6
C=C/C=C/CC(=O)N1CCN(CCOC(=O)[C@]23CC[C@@H](C)[C@H](C)[C@H]2C2=CC[C@@H]4[C@@]5(C)CC[C@H](O)C(C)(C)[C@@H]5CC[C@@]4(C)[C@]2(C)CC3)CC1	23.4
